Where do these numbers come from? They come from patent US20240246933A1.

measured on: tankyrase-1 enzyme (Homo sapiens, UniProt O95271)
Sequence (O95271 1001-1327): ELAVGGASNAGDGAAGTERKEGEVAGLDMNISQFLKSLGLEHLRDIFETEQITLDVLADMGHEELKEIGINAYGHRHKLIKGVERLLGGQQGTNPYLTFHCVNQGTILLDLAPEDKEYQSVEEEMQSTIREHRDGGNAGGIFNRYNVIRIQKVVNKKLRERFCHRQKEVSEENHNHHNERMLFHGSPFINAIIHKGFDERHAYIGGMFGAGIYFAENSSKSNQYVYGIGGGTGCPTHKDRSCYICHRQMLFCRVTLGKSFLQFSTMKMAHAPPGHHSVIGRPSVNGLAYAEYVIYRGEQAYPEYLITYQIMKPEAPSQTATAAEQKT

molecule: N#Cc1ccc(N2CCN(Cc3ccc4c5c(c(=O)[nH]c4c3)CCCN5)CC2)nc1 [Example 2]
measurement units: nM
IC50: 4.31
